# Read-out: Interleukin-8 (IL8), CXCL8 (gene 3576)
# method-notes: BSK_hDFCGF_IL8: BioMAP Diversity Plus: hDFCGF Assay for Interleukin-8 (IL8) Biomarker Activity (AID 2283058)
# condition-parameters: primary human foreskin fibroblasts; actives raise or lower the signal
Calls of active or inactive are those of the source. How the source made its calls: active means hit-call score of the fitted dose curve at least 0.9, where 1 is the maximum; inactive means score below 0.9.
outcome-measure: AC50

INSERT INTO results (structure_as_smiles, result) VALUES
  ('CCCCCCCCOC(=O)c1cc(O)c(O)c(O)c1', '33.2 µM (active)'),
  ('CN1C(=O)CC[C@H]1c1cccnc1', 'inactive'),
  ('CCN(Cc1cccc(S(=O)(=O)O)c1)c1ccc(C(=C2C=CC(=[N+](CC)Cc3cccc(S(=O)(=O)O)c3)C=C2)c2ccccc2S(=O)(=O)[O-])cc1', 'inactive'),
  ('c1ccc(C[n+]2cccc3ccccc32)cc1', 'inactive'),
  ('Oc1ccccc1', 'inactive'),
  ('Cc1cc(F)ccc1-c1cc(N2CC[C@@H](O)[C@H]2CO)ncc1N(C)C(=O)C(C)(C)c1cc(C(F)(F)F)cc(C(F)(F)F)c1', '18.4 µM (active)'),
  ('O=CCCCC=O', '36.9 µM (active)'),
  ('c1ccc2n[nH]nc2c1', 'inactive'),
  ('COc1cccc([C@H](O)C2CCN(CCc3ccc(F)cc3)CC2)c1OC', 'inactive'),
  ('CC(C)(O)c1ccc(CNC(=O)c2cccnc2Oc2ccc3nonc3c2)cc1', 'inactive'),
  ('CC[C@H](NC(=O)c1cc(F)ccc1NS(=O)(=O)c1cccc2cccnc12)c1ccccc1', 'inactive');

###

# Read-out: Pro-epidermal growth factor (Homo sapiens) (UniProt P01133)
# method-notes: LTEA_HepaRG_EGF: Life Technologies and Expression Analysis (LTEA) Assay for Epidermal growth factor (EGF) using HepaRG (AID 2283489)
# condition-parameters: mRNA level, 48 h; actives raise or lower the signal
# Protocol: LTEA_HepaRG is a cell based, multiplexed-readout assay that uses HepaRG, a human liver cell line, with measurements taken at 48 hours after chemical dosing on a 96-well plate.LTEA_HepaRG_EGF is one of 102 assay component(s) measured in the LTEA HepaRG cell culture assay. It is a marker of Cell proliferation, survival, death.Data from the assay component LTEA_HepaRG_EGF was analyzed into 1 endpoint. […]
Activity calls are given as the source filed them. Rule for the calls: active = hit-call score of the fitted dose curve at least 0.9, where 1 is the maximum; inactive = score below 0.9.
Outcome codes: TRUE for active, FALSE for inactive

INSERT INTO assay_data (structure_as_smiles, classification) VALUES
  ('Cc1oc2c(NC(=O)c3c(Cl)cccc3Cl)cccc2c1C(C)(C)O', 'FALSE'),
  ('NC(=O)c1nc(-c2cccc(-c3cc(F)ccc3OCC(F)(F)C(F)(F)F)c2)n[nH]1', 'FALSE'),
  ('CN(C)c1ccc(C(=C2C=CC(=[N+](C)C)C=C2)c2ccc(N(C)C)cc2)cc1', 'TRUE'),
  ('O=CCCCC=O', 'FALSE'),
  ('CCCOC(=O)c1cc(O)c(O)c(O)c1', 'FALSE'),
  ('CC1=CC(=O)/C(=C(/C)O)C(=O)O1', 'FALSE');

###

# method-notes: CCTE_Shafer_MEA_dev_spike_duration_mean: CCTE's Neural Network Formation Assay for Mean Spike Duration, Shafer Lab (AID 2284051);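 further: mean network spike duration pooled as area under curve over DIV 5 to 12 recordings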
Active and inactive are the calls of the source. Rule for the calls: active = hit-call score of the fitted dose curve at least 0.9, where 1 is the maximum; inactive = score below 0.9.
outcome-measure: outcome

INSERT INTO assay_data (structure_as_smiles, result) VALUES
  ('c1ccc2ccccc2c1', 'inactive'),
  ('Oc1ccccc1', 'inactive'),
  ('CN1C(=O)CC[C@H]1c1cccnc1', 'inactive'),
  ('CC(C)(c1cc(Br)c(O)c(Br)c1)c1cc(Br)c(O)c(Br)c1', 'inactive');

###

# Read-out: Lipoprotein lipase (LPL), LPL (gene 4023)
# method-notes: LTEA_HepaRG_LPL: Life Technologies and Expression Analysis (LTEA) Assay for Lipoprotein lipase (LPL) using HepaRG (AID 2283515)
# condition-parameters: mRNA level, 48 h; actives raise or lower the signal
Activity calls are given as the source filed them. How the source made its calls: active means hit-call score of the fitted dose curve at least 0.9, where 1 is the maximum; inactive means score below 0.9.
Outcome codes: yes (1) = active, no (0) = inactive

INSERT INTO results (structure_as_smiles, classification) VALUES
  ('O=CCCCC=O', 'no (0)'),
  ('Cc1cc(F)ccc1-c1cc(N2CC[C@@H](O)[C@H]2CO)ncc1N(C)C(=O)C(C)(C)c1cc(C(F)(F)F)cc(C(F)(F)F)c1', 'yes (1)'),
  ('O=c1[nH]sc2ccccc12', 'no (0)'),
  ('CCO[Si](CCCNC(N)=O)(OCC)OCC', 'no (0)'),
  ('O=C1c2ccccc2C(=O)N1CCc1noc(-c2ccc(CN3CCCCCC3)s2)n1', 'yes (1)'),
  ('CC[C@H](NC(=O)c1cc(F)ccc1NS(=O)(=O)c1cccc2cccnc12)c1ccccc1', 'no (0)'),
  ('c1ccc2n[nH]nc2c1', 'no (0)'),
  ('O=C=NCCCCCCN=C=O', 'no (0)'),
  ('CC(C)(c1cc(Br)c(O)c(Br)c1)c1cc(Br)c(O)c(Br)c1', 'yes (1)'),
  ('Cc1cn([C@H]2C[C@H](N=[N+]=[N-])[C@@H](CO)O2)c(=O)[nH]c1=O', 'no (0)'),
  ('NCc1cccc(C2CCN(C(=O)c3ccc(C#Cc4ccccc4F)o3)CC2)c1', 'no (0)');

###

# target-under-test: human Peroxisome Proliferator-activated Receptor delta (PPARd), PPARD (gene 5467) (UniProt Q03181)
# Sequence (Q03181 whole entry, looked up): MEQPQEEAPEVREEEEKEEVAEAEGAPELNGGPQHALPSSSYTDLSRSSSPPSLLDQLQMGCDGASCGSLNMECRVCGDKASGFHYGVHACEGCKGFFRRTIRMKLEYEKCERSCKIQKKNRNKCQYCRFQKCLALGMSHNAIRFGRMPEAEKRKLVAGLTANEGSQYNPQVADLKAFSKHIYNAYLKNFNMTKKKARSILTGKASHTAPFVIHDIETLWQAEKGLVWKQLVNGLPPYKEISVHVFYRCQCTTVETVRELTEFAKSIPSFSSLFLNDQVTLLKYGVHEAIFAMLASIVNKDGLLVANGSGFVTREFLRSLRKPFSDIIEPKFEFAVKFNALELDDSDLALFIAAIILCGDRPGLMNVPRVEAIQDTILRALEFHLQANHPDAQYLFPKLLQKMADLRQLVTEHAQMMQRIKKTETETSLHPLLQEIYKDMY
# method-notes: ATG_PPARd_TRANS: Attagene TRANS-FACTORIAL HepG2 Assay for human Peroxisome Proliferator-activated Receptor delta (PPARd) (AID 2283002)
Inconclusive results are not listed. Calls of active or inactive are those of the source. Rule for the calls: active = hit-call score of the fitted dose curve at least 0.9, where 1 is the maximum; inconclusive = response in the unintended direction; inactive = score below 0.9.
Outcome codes: active, inactive

INSERT INTO assay_data (compound, classification) VALUES
  ('CCN(Cc1cccc(S(=O)(=O)O)c1)c1ccc(C(=C2C=CC(=[N+](CC)Cc3cccc(S(=O)(=O)O)c3)C=C2)c2ccccc2S(=O)(=O)[O-])cc1', 'inactive'),
  ('CCN(Cc1cccnc1)C(=O)c1cccc(Cl)c1[C@]1(C)C(=O)N(Cc2ccc(OC)cc2OC)c2ccc(Cl)cc21', 'inactive'),
  ('CCCCCCCCCCCCO', 'inactive'),
  ('NC(=O)c1nc(-c2cccc(-c3cc(F)ccc3OCC(F)(F)C(F)(F)F)c2)n[nH]1', 'inactive'),
  ('COc1cc(C(=O)NC2CCN(C)CC2)ccc1Nc1ncc2c(n1)N(C1CCCC1)CC(F)(F)C(=O)N2C', 'active'),
  ('C[C@]12CC[C@@H]3c4ccc(O)cc4CC[C@H]3[C@@H]1CC[C@H]2O', 'inactive'),
  ('CCCCCCCCCCCO', 'active'),
  ('COCC(C)OCC(C)OCC(C)O (stereo not given)', 'inactive'),
  ('CC1=CC(=O)/C(=C(/C)O)C(=O)O1', 'inactive'),
  ('CCCOC(=O)c1cc(O)c(O)c(O)c1', 'inactive');

###

# Read-out: DNA damage-inducible transcript 3 (DDIT3), DDIT3 (gene 1649)
# method-notes: LTEA_HepaRG_DDIT3: Life Technologies and Expression Analysis (LTEA) Assay for DNA damage-inducible transcript 3 (DDIT3) using HepaRG (AID 2283488)
# condition-parameters: mRNA level, 48 h; actives raise or lower the signal
Active and inactive are the calls of the source. How the source made its calls: active means hit-call score of the fitted dose curve at least 0.9, where 1 is the maximum; inactive means score below 0.9.
Outcome codes: true = active, false = inactive

INSERT INTO measurements (compound, classification) VALUES
  ('CCCCCc1ccc(N)cc1', 'false'),
  ('O=C=NCCCCCCN=C=O', 'false'),
  ('COc1ccc2cc(S(=O)(=O)N[C@H](CC(=O)N[C@H](Cc3ccc(CN4[C@H](C)CCC[C@@H]4C)cc3)C(=O)N(C)C(C)C)c3ccc4c(c3)OCO4)ccc2c1', 'true'),
  ('CC(C)(c1cc(Br)c(O)c(Br)c1)c1cc(Br)c(O)c(Br)c1', 'false'),
  ('Oc1ccccc1', 'false'),
  ('Cc1ccc(C(C)C)cc1', 'false'),
  ('CC(=O)N1CCN(c2ccc(OC[C@H]3CO[C@](Cn4ccnc4)(c4ccc(Cl)cc4Cl)O3)cc2)CC1', 'true'),
  ('CC[C@@H]1C[C@H](N(Cc2cc(C(F)(F)F)cc(C(F)(F)F)c2)C(C)=O)c2cc(C(F)(F)F)ccc2N1C(=O)OC(C)C', 'false'),
  ('Clc1cc(Cl)c2c(c1)N=C1CCCCCN1C2', 'false'),
  ('COCC(C)OCC(C)OCC(C)O (stereo unspecified)', 'false'),
  ('CCCCCCCCOC(=O)c1cc(O)c(O)c(O)c1', 'false'),
  ('O=C(Nc1ccc(Cl)cc1)Nc1ccc(Cl)c(Cl)c1', 'true'),
  ('Oc1ccc2ccccc2c1', 'false'),
  ('O=CCCCC=O', 'false'),
  ('CCCC(=O)OCCC(C)C', 'false'),
  ('CO[C@H]1/C=C/O[C@@]2(C)Oc3c(C)c(O)c4c(O)c(c(/C=N/N5CCN(C)CC5)c(O)c4c3C2=O)NC(=O)/C(C)=C\C=C\[C@H](C)[C@H](O)[C@@H](C)[C@@H](O)[C@@H](C)[C@H](OC(C)=O)[C@@H]1C', 'false');

Every entry's value here was drawn from PubChem BioAssay (EPA / NIEHS).
